Data provenance: BindingDB's records for patent US20240336562

tgt: NACHT, LRR and PYD domains-containing protein 3 (Homo sapiens, UniProt Q96P20)
Sequence (Q96P20 whole entry, the tested form may be a part): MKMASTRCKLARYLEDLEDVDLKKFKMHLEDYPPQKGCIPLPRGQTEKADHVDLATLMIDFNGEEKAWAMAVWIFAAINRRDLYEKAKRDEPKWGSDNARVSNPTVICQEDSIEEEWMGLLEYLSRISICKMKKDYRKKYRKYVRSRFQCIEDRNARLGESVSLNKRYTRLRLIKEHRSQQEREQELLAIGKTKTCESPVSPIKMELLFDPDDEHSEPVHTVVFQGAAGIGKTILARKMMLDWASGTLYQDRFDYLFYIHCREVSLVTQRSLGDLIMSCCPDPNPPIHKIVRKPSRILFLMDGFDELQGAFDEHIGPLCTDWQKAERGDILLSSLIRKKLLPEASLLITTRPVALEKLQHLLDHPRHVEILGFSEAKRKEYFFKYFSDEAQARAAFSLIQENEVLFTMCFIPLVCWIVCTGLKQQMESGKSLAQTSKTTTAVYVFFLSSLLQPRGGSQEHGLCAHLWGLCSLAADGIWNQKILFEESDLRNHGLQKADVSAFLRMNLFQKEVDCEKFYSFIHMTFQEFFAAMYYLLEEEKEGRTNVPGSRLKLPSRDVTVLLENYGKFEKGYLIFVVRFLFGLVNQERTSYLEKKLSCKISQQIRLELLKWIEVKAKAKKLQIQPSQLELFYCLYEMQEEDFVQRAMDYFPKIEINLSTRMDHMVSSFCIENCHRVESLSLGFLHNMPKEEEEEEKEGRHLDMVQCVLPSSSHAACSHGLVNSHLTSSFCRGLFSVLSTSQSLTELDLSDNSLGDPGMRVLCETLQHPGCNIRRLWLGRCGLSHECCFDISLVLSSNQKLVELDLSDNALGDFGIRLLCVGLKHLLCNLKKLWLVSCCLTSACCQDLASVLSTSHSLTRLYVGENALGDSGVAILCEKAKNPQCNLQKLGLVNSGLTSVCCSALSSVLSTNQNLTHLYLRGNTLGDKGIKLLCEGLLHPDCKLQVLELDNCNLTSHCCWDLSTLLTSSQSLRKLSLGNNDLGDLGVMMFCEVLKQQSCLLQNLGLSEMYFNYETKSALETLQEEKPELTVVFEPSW
outcome.measure: IC50

**Query** Recorded IC50 for COc1cc(-c2c(C)cc3c(c2NC(=O)NS(=O)(=O)c2ccn(C4CC(=C(F)F)C4)n2)CCC3)ccn1 (stereo unspecified) , please?
**Result** < 25 nM
